Test system: K4 kissing-loop RNA reporter;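 also: bound reporter read as fluorescence of individual clusters on recovered sequencing chips by microscopy, with normalized cluster intensities fitted with a binding model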
Test: apparent KD of K4 kissing-loop reporter; higher = weaker reporter binding
Details: Eterna round: R107; input ligand: FMN 200 uM
# apparent KD of K4 kissing-loop reporter >= 0.3 µM gives yes, anything below gives no

construct sequence	assayed system	discrete label
AUGCAUGAAAGUGAUGUUUUCAGUAAUGGAAAGGAUAUGCGCUGGUGCAGAAGGUUCUAAAGUGCAUCCAACAACUGGGUAGGCC [theeternabot_sameState_KL_FMN_A_36]	K4 kissing-loop RNA reporter	no
GGAUAGGACAGAGGAUAUGGACAGUCUACAAAGUAGGCUGAAAAUCCUUGAAUGGAAGUGAUGUUUCUAGAAGGCUGUCCUAUCG [FmnBX 19 - #SwitchBubble #StaticStem #Palindromic]	K4 kissing-loop RNA reporter	yes
ACGGAUACGCGAGAUACCAGAGGCAUUCGCCAGCGACCAUAAUGUCCCGAGAGUGAUGUUCUCCCUUGGCAGCUCAUGGUUAAUU [theeternabot_exclusion_KL_Theo_B_2]	K4 kissing-loop RNA reporter	yes
GGGAGGAGUGGUGUUGAUUAGGGAGCGGAAGGAGCGCCGAGGAAGGCAGGUAGGUCGCCGGAUUAUAGUGAUGUUAUGAAGAGGG [ExArg.J]	K4 kissing-loop RNA reporter	yes
AAUUAAUACAGAAGGAGCGUGUAUUUAACUACAAUUAUCUUAGCGAGUGAUGUUCGUUUUACACAGGUAGGUCGCUGUAUAUUUA [JR_ExcArginiB_Sub010]	K4 kissing-loop RNA reporter	no

###

Tested on: MS2 coat protein
Test: apparent KD of MS2 coat protein; designed switch direction (-1 OFF switch, 1 ON switch): -1; higher = weaker reporter binding
Conditions: input ligand: none
# apparent KD of MS2 coat protein >= 20 nM gives true, anything below gives false

construct sequence	discrete label
GUCAUCACACAUGGGAUCAACAUGAGGAUCACCCAUGUUGCCAAGUUGUUUGCACGUCUUAUCAUACGUUUUUCGAG [Mod-Jxh] (Eterna round: R97, puzzle: Sensor, turn-off variant 1)	true
GAUACCUAUGUAAGGAUAUAUAAAGAGAGCCGCCUGUAGAAGGUACAUGAGGAUCACCCAUGUUGGGAGACCGA [Eternabot (L1) Solution 17] (Eterna round: R97, puzzle: Brourd's mod of Exclusion 4)	true
ACUUCACAUGAGGAUCACCCAUGUGAGGAUAUCGUCGAGGAUGUAAUGCCAUCCGUGGCGAGAAGGCGCAUGGG [Exclusion 1 (Mod1.1 solution 40 by Eternabot)] (Eterna round: R97, puzzle: Exclusion 1)	true
GCGGACUAGAUCGUGAGAUCAGAGACAUGAGGAUCACCCAUGUAGGAUAUCGAUUCGAAACGAAUCGAGAAGGGCAUAGUCCGC [JL denovo 7] (Eterna round: R96, puzzle: Exclusion NG 3)	false
GAUCAGAUAGGAUAUACAGGCCCGUCUUUAUAUUGAUCCCGACAUGAGGAUCACCCAUGUAGAAGGAUCAGAUC [Mod 28 - Jieux - Exclusion 2] (Eterna round: R97, puzzle: Exclusion 2)	false

###

System: MS2 coat protein
Assay: apparent KD of MS2 coat protein; higher = weaker reporter binding
Conditions: Eterna round: R107; input ligand: arginine 13.2 mM
Measured apparent KD of MS2 coat protein accompanies every entry in the list below.
value type: apparent KD of MS2 coat protein (µM)

> print(dat)
                         construct.sequence                       value.type  scale.unit  measured.value
1  AGAUUCGACACGGCCGCCACUCGUGACGGAUUUCCGAGUGUCGAACAUGAGGAUCACCCAUGUACGAGGACCGGGUGUUGAGUCU [XTryp B #13]  apparent KD of MS2 coat protein          µM          0.0396
2  AAUAAUAACUGAAGGAGCGUCUAUAUUACAUGAGGAUCACCCAUGUUUAUAUGGUAUUAUAGACAGGUAGGUCGCAGAUUUUUUA [JR_SSArginiB_Sub016]  apparent KD of MS2 coat protein          µM          0.0145
3  CACAUGAGGAUCACCCAUGUGUAAUAUGAAGGAGCGUCGGAAAUGACAGGUAGGUCGCAUGAAAUGCAAGUGUGUGAGGUUGUGA [EAA NP+V+V2 #12]  apparent KD of MS2 coat protein          µM         0.00917
4  GGUAGCAGGACUGAUACCAGUCCAGCGAAUCAUACGACGCAACAUGAGGAUCACCCAUGUGACCCUUGGCAGCAGACUGCUACCG [Same State Theophylline B GF 28]  apparent KD of MS2 coat protein          µM          0.0294
5  UUGUUGUUUGGAAGGAGCGUGUAUGAGUUAGAACAUGAGGAUCACCCAUGUUGGAUGAUAGCACAGGUAGGUCGCCGGGUGGUGG [11.Y]  apparent KD of MS2 coat protein          µM         0.00843
6  UGUGUCGUCUGAAGGAGCGGCUCUUGAUCCUCGUGGGACAUGAGGAUCACCCAUGUCUCGAGCCAGGUAGGUCGCAGGCGGCACA [#27 Exclusion - Arginine B]  apparent KD of MS2 coat protein          µM          0.0313

Origin of values: the supplement of paper PMC9170038
